test system: A549-ACE2; experiment: drug-induced phospholipidosis relative to tamoxifen; higher = more phospholipidosis; conditions: 6.66667 µM; 72 h
Measured Metric: drug-induced phospholipidosis (%)
Give bare numbers, in %.

// solved cases for drug-induced phospholipidosis follow
C[C@@H]1C[C@H]2[C@@H]3CCC4=CC(=O)C=C[C@]4(C)[C@@]3(Cl)[C@@H](O)C[C@]2(C)[C@@]1(OC(=O)c1ccco1)C(=O)CCl [MOMETASONE FUROATE] ... 30.4
c1ccc(-c2ccc(C(c3ccccc3)n3ccnc3)cc2)cc1 (centres undefined) ... 5.49
CC(C)(C)Cn1c(N)nc2ccc(-c3[nH]c(C(C)(C)C)nc3-c3ccc(F)cc3)nc21 ... 13.2

From here, focus on the item given below.
get_value(item= "COc1ccccc1C1(O)CCN(CCCn2c3ccccc3c3ccccc32)CC1" , readout=drug-induced phospholipidosis) returns 106

----------
test system: A549-ACE2; test: drug-induced phospholipidosis relative to tamoxifen; higher = more phospholipidosis; settings: 30 µM; 24 h
Assignment: determine reported drug-induced phospholipidosis for the given compounds.
One number for each entry, in %.

Guide cases for drug-induced phospholipidosis, answers given:
CC(C)(C)Cn1c(N)nc2ccc(-c3[nH]c(C(C)(C)C)nc3-c3ccc(F)cc3)nc21 ... 60.6
C=C1C(=O)O[C@@H]2/C=C(\C)CC/C=C(\C)CC[C@@H]12 [costunolide] ... 39.6
c1ccc(-c2ccc(C(c3ccccc3)n3ccnc3)cc2)cc1 (centres undefined) [bifonazole] ... 40.1

Kindly consider the entry below.
The value of drug-induced phospholipidosis measured for the compound "CC(=O)N(O)[C@@H]1c2cc(C#N)ccc2OC(C)(C)[C@H]1O" turned out to be 3.58

----------
system: U2OS; assay: cell viability relative to DMSO; higher = less toxic; conditions: 72 h; 10000 nM
Exercise: state measured cell viability for each of the compounds provided.
One number for each entry, in %.

CC(O)c1cc(C(=O)N[C@@H](C)Cn2ccc(-c3ccc(C#N)c(Cl)c3)n2)n[nH]1 (some centres undefined) [ODM-201] ... 111

Below are some compounds; for each one, tell me its cell viability.
1. O=S1(=O)c2cccc3cccc(c23)N1CCCN1CCN(c2ccc(F)cc2)CC1 [fananserin]
2. Cc1cncc(CN2CCC(=C3c4ccc(Cl)cc4CCc4cccnc43)CC2)c1 [rupatadine]
3. CC[C@]1(O)C[C@@H]2CN(CCc3c([nH]c4ccccc34)[C@@](C(=O)OC)(c3cc4c(cc3OC)N(C)[C@H]3[C@@](O)(C(N)=O)[C@H](O)[C@]5(CC)C=CCN6CC[C@]43[C@@H]65)C2)C1 [vindesine]

Result:
1: 99.3; 2: 90.3; 3: 22.3

----------
test system: HepG2; experiment: cell viability relative to DMSO; higher = less toxic; details: 72 h; 10 nM
Measured Metric: cell viability (%)
Give bare numbers, in %.

CSCC[C@H](NC(=O)[C@H](CC(C)C)NC(=O)[C@@H](Cc1c[nH]c2ccccc12)NC(=O)[C@H](Cc1ccccc1)N(C)C(=O)[C@@H](Cc1c[nH]c2ccccc12)NC(=O)[C@@H](N)CCCNC(=N)N)C(N)=O ... 98.1
COc1cc(CCc2cc(NC(=O)c3ccc(N4CC(C)NC(C)C4)cc3)n[nH]2)cc(OC)c1 (stereo not given) ... 105
COCCCN1CCC(NC(=O)c2cc(Cl)c(N)c3c2OCC3)CC1 [prucalopride] ... 102

Below are 2 compounds. Give each one its cell viability.
1. COc1ccccc1N1CCN(CCCNc2cc(=O)n(C)c(=O)n2C)CC1
2. Cc1ccc(C[N+](C)(C)C)o1 [5-methylfurmethiodide]

Result:
90.1
108

----------
system: Calu-3; experiment: drug sensitivity score (DSS) for viability; higher = more toxic; extreme values may be limits of the assay; settings: 72 h
Hi there, I'd appreciate the recorded drug sensitivity score for every entry that follows.
Answers are plain numbers.

Past entries and their recorded results:
CSCC[C@H](NC(=O)[C@H](CC(C)C)NC(=O)[C@@H](Cc1c[nH]c2ccccc12)NC(=O)[C@H](Cc1ccccc1)N(C)C(=O)[C@@H](Cc1c[nH]c2ccccc12)NC(=O)[C@@H](N)CCCNC(=N)N)C(N)=O ... 0
Cn1cc(-c2ccc(F)c(C(F)(F)F)c2)nc1C1CCN(c2ncnc3[nH]ncc23)CC1 ... 0.4

Pending compound:
// recorded drug sensitivity score for "O=C(c1c(F)ccc(NS(=O)(=O)N2CC[C@@H](F)C2)c1F)c1c[nH]c2ncc(-c3cnc(C4CC4)nc3)cc12" : 0

----------
tested on: Caco-2; test: cell viability relative to DMSO; higher = less toxic; details: 72 h; 1000 nM
Under this convention, Criterion met denotes cell viability strictly below 90% and Criterion not met denotes cell viability at or above 90%.

Solved cases (6 shown):
N=C(Nc1ccccc1)Nc1ccccc1 ... Criterion not met
NCCNS(=O)(=O)c1ccc(Cl)c2ccncc12 ... Criterion not met
C[C@H](Nc1ncnc2[nH]cnc12)c1nc2ccc(F)cc2c(=O)n1-c1ccccc1 ... Criterion not met
CC(C)NCC(O)c1ccc([N+](=O)[O-])cc1 (centres undefined) ... Criterion met
CC[C@@H]([C@H](C)O)n1ncn(-c2ccc(N3CCN(c4ccc(OC[C@@H]5CO[C@@](Cn6cncn6)(c6ccc(F)cc6F)C5)cc4)CC3)cc2)c1=O ... Criterion met
CC(=O)Nc1ccccc1 [acetanilide] ... Criterion not met

Request: Threshold test, cell viability < 90%: "Cn1nc(-c2cccc(F)c2)n(C)c1=S"
Result: Criterion not met

Request: Decide: cell viability of "CNC(=O)c1ccc(C)c(-n2c(C)cc(OCc3ccc(F)cc3F)c(Br)c2=O)c1" strictly below 90%?
Result: Criterion met

----------
tested on: U2OS; experiment: cell viability relative to DMSO; higher = less toxic; settings: 72 h; 1000 nM
Measured Metric: cell viability (%)
Answers are plain numbers, in %.

# map each molecule to its cell viability
1. O=C(O)CCCN1C(=O)c2cccc3cccc(c23)C1=O [isodibut]
2. O=C(O)[C@@H](S)[C@@H](S)C(=O)O [dimercaptosuccinic-acid]
3. NCCC(=O)N[C@@H](Cc1c[nH]cn1)C(=O)O [carnosine]
4. CCOC(=O)c1cc2ccc(O)cc2oc1=O [YZ9]
5. OCCn1cc(-c2cnc3nnn(Cc4ccc5ncccc5c4)c3n2)cn1

Result:
97.6
101
99.1
103
95.3

----------
tested on: HepG2; assay: cell viability relative to DMSO; higher = less toxic; details: 72 h; 1 nM
Measured Metric: cell viability (%)
Numbers only, in %.

CC(=O)OC[C@H](N)C(=O)O [O-acetyl-L-serine] ... 115

Each of the following entries comes with a recorded value; kindly state cell viability for each.
1. COc1ccc2c(OCc3nnc4ccc(-c5ccccc5)nn34)ccnc2c1 [AMG-208]
2. C[C@@H]1CC(=O)NN=C1c1ccc(NN=C(C#N)C#N)cc1 [levosimendan]
3. Cn1cc(-c2ccc(F)c(C(F)(F)F)c2)nc1C1CCN(c2ncnc3[nH]ncc23)CC1
4. O=c1ccc2c(OCCCCOc3ccccc3)c3ccoc3cc2o1 [AS-77]
5. CN(C)C(=O)C(=O)c1cn(C)c2cc(Cl)c(C(=O)N3CCC(Cc4ccc(F)cc4)CC3)cc12 [SX-011]
6. CC(C)[C@@H](CN1CC[C@@](C)(c2cccc(O)c2)[C@@H](C)C1)NC(=O)[C@H]1Cc2ccc(O)cc2CN1 [JDTic]
7. CCN1CCC[C@H]1CNC(=O)c1c(O)c(Cl)cc(Cl)c1OC [raclopride]

Result:
[99.4, 101, 106, 106, 112, 100, 99.6]

// for each compound in input: emit cell viability
1. O=C1O[C@H]([C@@H](O)CO)C(O)=C1O [ASCORBIC ACID]
2. O=CN1CCC(C(=O)NCCN2CCC(=C3c4ccccc4C=Cc4ccccc43)CC2)CC1 [AT-1015]
3. CC[C@]1(O)C[C@@H]2CN(CCc3c([nH]c4ccccc34)[C@@](C(=O)OC)(c3cc4c(cc3OC)N(C)[C@H]3[C@@](O)(C(N)=O)[C@H](O)[C@]5(CC)C=CCN6CC[C@]43[C@@H]65)C2)C1 [vindesine]
4. C[C@@H]1COC(Nc2ccc3ncnc(Nc4ccc(OCc5nccs5)c(Cl)c4)c3c2)=N1
5. C=C1/C(=C\C=C2/CCC[C@]3(C)[C@@H]([C@H](C)/C=C/[C@@H](O)C4CC4)CC[C@@H]23)C[C@@H](O)C[C@@H]1O [calcipotriol]
6. COc1ccc2cc(-c3nc(-c4ccc([S+](C)[O-])cc4)[nH]c3-c3ccncc3)ccc2c1 (centres undefined) [tie2-kinase-inhibitor]
7. c1ccc(-c2ccc(C(c3ccccc3)n3ccnc3)cc2)cc1 (centres undefined) [bifonazole]

Result:
[99.6, 104, 92.9, 100, 101, 109, 98.2]

Record cell viability for all entries; do not skip any.
1. CCCCC/C=C\C/C=C\C/C=C\C/C=C\CCCC(=O)Nc1ccc(O)cc1 [AM-404]
2. COc1ccc(N2CCOCC2)c2sc(NC(=O)N3CCC(C)(O)CC3)nc12 [tozadenant]
3. C=C(C)[C@@H]1CC[C@]2(CO)CC[C@]3(C)[C@H](CC[C@@H]4[C@@]5(C)CC[C@H](O)C(C)(C)[C@@H]5CC[C@]43C)[C@@H]12 [NSC-4644]
4. CCCC(=O)O [sodium-butyrate]

Result:
1. 110
2. 85.8
3. 112
4. 109
